This collection of values is drawn from patent US20220387487A1.

# Test system: FMC63
# Sequence (as listed by the source): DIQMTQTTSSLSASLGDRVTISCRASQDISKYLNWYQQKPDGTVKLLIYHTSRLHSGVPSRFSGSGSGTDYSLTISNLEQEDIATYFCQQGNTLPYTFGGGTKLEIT
# Sequence (as listed by the source): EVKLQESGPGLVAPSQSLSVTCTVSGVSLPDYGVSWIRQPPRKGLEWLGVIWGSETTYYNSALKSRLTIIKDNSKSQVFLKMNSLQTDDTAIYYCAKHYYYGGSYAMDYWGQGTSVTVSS
# ASSAY_TEXT: CD19 variant binding to anti-CD19 antibody FMC63 (score)
# CONDITION_SET: Table 1A, CD19 single mutants (positions of SEQ ID NO:2)
MEASUREMENT_LABEL: FMC63 Binding Score

Some solved entries appear below for comparison.
INSERT INTO assay_data (molecule, result_value) VALUES
  ('A257K: CD19 variant (protein) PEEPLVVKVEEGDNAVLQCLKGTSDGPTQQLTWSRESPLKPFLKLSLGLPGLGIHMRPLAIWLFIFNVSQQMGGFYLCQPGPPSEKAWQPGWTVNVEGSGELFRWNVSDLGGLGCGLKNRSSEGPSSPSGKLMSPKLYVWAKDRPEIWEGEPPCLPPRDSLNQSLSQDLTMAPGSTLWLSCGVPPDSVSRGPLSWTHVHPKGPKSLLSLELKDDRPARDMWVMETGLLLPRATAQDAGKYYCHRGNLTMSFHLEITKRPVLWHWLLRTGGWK', '6.1 ± .5'),
  ('W262R: CD19 variant (protein) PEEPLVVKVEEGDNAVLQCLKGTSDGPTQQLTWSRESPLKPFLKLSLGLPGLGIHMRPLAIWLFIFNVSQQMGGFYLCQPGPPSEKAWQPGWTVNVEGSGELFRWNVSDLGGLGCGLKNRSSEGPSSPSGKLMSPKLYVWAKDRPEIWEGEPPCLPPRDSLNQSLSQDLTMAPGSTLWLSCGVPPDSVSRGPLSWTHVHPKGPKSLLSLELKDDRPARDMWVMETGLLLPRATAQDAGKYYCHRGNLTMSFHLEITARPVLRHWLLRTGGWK', '7.4 ± .3'),
  ('W262A: CD19 variant (protein) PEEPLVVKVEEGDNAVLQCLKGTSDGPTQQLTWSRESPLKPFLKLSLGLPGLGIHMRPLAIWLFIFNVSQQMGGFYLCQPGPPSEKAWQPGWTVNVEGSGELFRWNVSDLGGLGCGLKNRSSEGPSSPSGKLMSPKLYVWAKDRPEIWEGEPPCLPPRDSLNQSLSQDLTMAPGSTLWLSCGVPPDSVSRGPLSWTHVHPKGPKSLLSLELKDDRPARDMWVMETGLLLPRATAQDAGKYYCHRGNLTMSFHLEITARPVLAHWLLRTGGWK', '6.9 ± .5');

Now for the molecule whose FMC63 Binding Score we want.
Lookup: Look up and report measured FMC63 Binding Score for this entry: L59E: CD19 variant (protein) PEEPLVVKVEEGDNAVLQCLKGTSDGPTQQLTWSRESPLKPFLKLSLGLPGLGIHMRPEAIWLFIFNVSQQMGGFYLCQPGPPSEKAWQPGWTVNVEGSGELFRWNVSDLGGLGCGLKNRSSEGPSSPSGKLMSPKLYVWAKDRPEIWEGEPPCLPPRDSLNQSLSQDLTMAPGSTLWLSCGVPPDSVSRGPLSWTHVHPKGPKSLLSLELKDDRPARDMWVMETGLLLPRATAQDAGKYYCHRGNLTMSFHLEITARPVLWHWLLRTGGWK
Found: 6.3 ± .5
